TESTED ON: T1, human melanocortin receptor subtype 4 (hMC4-R) (human, UniProt P32245 1-332)
T1 construct: whole, on cells; membranes of CHO-K1 cells
T1 sequence (P32245 whole entry): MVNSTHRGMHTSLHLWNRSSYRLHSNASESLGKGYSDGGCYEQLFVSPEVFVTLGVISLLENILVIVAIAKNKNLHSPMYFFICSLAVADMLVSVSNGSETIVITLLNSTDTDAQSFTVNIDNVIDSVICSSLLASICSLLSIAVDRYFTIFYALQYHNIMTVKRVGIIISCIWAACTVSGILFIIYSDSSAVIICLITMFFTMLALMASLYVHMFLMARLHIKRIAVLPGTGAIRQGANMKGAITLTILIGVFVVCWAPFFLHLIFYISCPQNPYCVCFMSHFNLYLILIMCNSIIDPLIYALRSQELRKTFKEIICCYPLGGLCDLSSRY
PROCEDURE SUMMARY: [125I]-NDP-α-MSH competition, membranes
Bridge positions count the residues as written; N and C are the ends. Square brackets hold non-standard residues; d marks the D form. Ends that are not written are not given here. d2Nal = N[C@H](Cc1ccc2ccccc2c1)C(=O)O; Bta = N[C@@H](Cc1csc2ccccc12)C(=O)O; Pen = CC(C)(S)[C@H](N)C(=O)O; Nle = CCCC[C@H](N)C(=O)O; βAla = NCCC(=O)O
Please provide measured Ki for the entries that follow.
One number for each entry, in nM.

// known answers, use as guide
RGCEH[dF]RWC-NH2 (disulfide 3-9; also: hydantoin ring from C(O) with Arg1-Gly2) [Hydantoin(C(O)-(Arg-Gly))-c(Cys-Glu-His-D-Phe-Arg-Trp-Cys)-NH2]: 2.44
XCAHFRWCXXYGRKKRRQRRR (N-terminal Ac; Nle at 1; D-Ala at 3; D-Phe at 5; Doc at 9 and 10; disulfide Cys2-Cys8; C-terminal NH2) [Ac-Nle-c(Cys-D-Ala-His-D-Phe-Arg-Trp-Cys)-(Doc)2-Tyr-Gly-Arg-Lys-Lys-Arg-Arg-Gln-Arg-Arg-Arg-NH2]: 0.635
Ac-CEH[d2Nal]R[Bta]ACPPKD[βAla]GRRRRRQRRR-NH2 (disulfide 1-8): 0.95

I need Ki for every entry listed below, if you could help.
1. [Nle]GC[dA]H[dF]RW[Pen]-NH2 (disulfide 3-9; also: N-terminal hydantoin: C(O) bridges X1 N-terminal N and G2 backbone N, bridge at N via C(O), other end not in the chain) [Hydantoin(C(O)-(Nle-Gly))-c(Cys-D-Ala-His-D-Phe-Arg-Trp-Pen)-NH2]
2. Ac-CEH[d2Nal]R[Bta]ACPPKD[βAla]RRRRRRQRRR-NH2 (disulfide 1-8)

1: 3.53; 2: 0.781
